Molecular target: Solute carrier family 15 member 2 (Rattus norvegicus)
Sequence (Q63424 whole entry): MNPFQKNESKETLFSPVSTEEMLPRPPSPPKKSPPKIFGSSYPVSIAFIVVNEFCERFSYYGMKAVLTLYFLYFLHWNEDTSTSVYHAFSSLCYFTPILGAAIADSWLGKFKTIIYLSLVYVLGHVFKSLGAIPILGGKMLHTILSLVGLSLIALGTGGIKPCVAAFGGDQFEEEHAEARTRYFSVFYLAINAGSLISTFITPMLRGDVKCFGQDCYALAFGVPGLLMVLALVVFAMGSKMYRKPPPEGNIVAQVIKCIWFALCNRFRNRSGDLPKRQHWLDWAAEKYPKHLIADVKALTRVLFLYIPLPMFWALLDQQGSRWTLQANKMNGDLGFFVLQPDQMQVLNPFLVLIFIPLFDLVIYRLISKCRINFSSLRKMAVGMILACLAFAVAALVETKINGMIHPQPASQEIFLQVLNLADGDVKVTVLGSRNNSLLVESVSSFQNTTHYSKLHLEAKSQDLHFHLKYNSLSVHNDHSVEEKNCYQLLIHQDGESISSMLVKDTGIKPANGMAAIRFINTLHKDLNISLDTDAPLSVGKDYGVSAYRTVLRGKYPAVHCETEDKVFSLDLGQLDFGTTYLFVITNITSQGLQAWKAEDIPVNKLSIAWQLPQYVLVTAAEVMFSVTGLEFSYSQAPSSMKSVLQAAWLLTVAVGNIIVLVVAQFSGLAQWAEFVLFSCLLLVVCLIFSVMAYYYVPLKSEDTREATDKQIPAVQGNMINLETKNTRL
Test: TP_TRANSPORTER: inhibition of Gly-Sar uptake (Gly-Sar: 10 uM) in PEPT2-expressing SK-N-SH cells
Residues, ends and D or L forms follow the SMILES beside them.
measured metric: pIC50
Convention used: pIC50 is expressed as -log10 of the molar concentration.

What value of pIC50 has been recorded for this entry: CC(=O)N[C@@H](CC(=O)O)C(=O)N[C@@H](CCC(=O)O)C(=O)O [ISOSPAGLUMIC ACID] (Ac-Asp-Glu-OH) 2.52

Every entry's value here was drawn from ChEMBL document CHEMBL2074191.
